# credit: ChEMBL document CHEMBL5126558

- assay-info: AUC in cynomologus monkey at 10 mg/kg, po
- Format: ADME, organism-based, Macaca fascicularis
- Design: dose 10 mg/kg, route po
- test-settings: cynomolgus monkey, in vivo
quantity-name: AUC (µM·h)
# output: bare number, implied unit µM·h

Task: I would be grateful if you could share the reported AUC for CNC(=O)c1ccc(-c2ccc(C3(C(=O)N4CC[C@@]5(C4)OC(=O)c4ccccc45)CC3)cc2)cn1 .
Output: 8.7

* * *

- assay-info: Clearance in cynomologus monkey at 2.5 mg/kg, iv
- Type: ADME, organism-based, Macaca fascicularis
- test-settings: cynomolgus monkey, in vivo
quantity-name: clearance (mL/min/kg)
# number only, unit mL/min/kg dropped from output

Task: Which value of clearance has been reported for CNC(=O)c1ccc(-c2ccc(C3(C(=O)N4CC[C@@]5(C4)OC(=O)c4ccccc45)CC3)cc2)cn1 in the records?
Output: 18.3
